These measurements were taken from the supplement of paper PMC10037445.

tested on: RAW-Dual; assay: NF-kB SEAP reporter activity, fold change vs agonist alone; higher = enhanced NF-kB activity; settings: library stock concentration (final ~1000-fold dilution): 10 mM; cytotoxicity flag (confluency mask): not cytotoxic; agonist: Imiquimod (TLR7) […]
In all, about 2,900 compounds were measured (“NF-kB SEAP reporter activity, fold change vs agonist alone”: median about 0.99, highest 2% from about 2.6 on). This is one part of a sample in which the highest values are shown more often than they occur.
Decide using NF-kB SEAP reporter activity: a value greater than or equal to 1 is YES, a smaller one is NO.

See these solved cases before continuing.
{"columns": ["molecule", "discrete label"],
 "data": [
  ["O=c1[nH]c(=S)[nH]c2nc(-c3ccccc3)c(-c3ccccc3)nc12", "NO"],
  ["CC1(c2nc3c(C(N)=O)cccc3[nH]2)CCCN1 (stereo not given)", "YES"],
  ["COc1cc(N2CCC(N(C)C)CC2)ccc1Nc1ncc(Cl)c(Nc2ccccc2P(C)(C)=O)n1", "YES"]
]}

Task item: I'd appreciate it if you could say whether "CC(C)(C)c1ccc(S(=O)(=O)NCc2ccc(C(=O)Nc3cccnc3)cc2)cc1" has NF-kB SEAP reporter activity at least equal to 1.
Reply: NO

Task item: I'd appreciate it if you could say whether O=C(CCNC(=O)c1ccc(OC(F)(F)F)cc1)NC1CCCc2ccccc21 (stereo not given) has NF-kB SEAP reporter activity at least equal to 1.
Reply: YES

Task item: I'd appreciate it if you could say whether "COc1ccc(CNC(=O)Nc2ncc([N+](=O)[O-])s2)cc1" has NF-kB SEAP reporter activity at least equal to 1.
Reply: YES

Task item: I'd appreciate it if you could say whether "COc1cc(-c2cc(-c3ccc(Cl)cc3)nc(=O)[nH]2)ccc1O" has NF-kB SEAP reporter activity at least equal to 1.
Reply: YES

Task item: I'd appreciate it if you could say whether "CN1CCN(S(=O)(=O)c2ccc(-c3cnc(N)c(C(=O)Nc4cccnc4)n3)cc2)CC1" has NF-kB SEAP reporter activity at least equal to 1.
Reply: YES

Task item: I'd appreciate it if you could say whether COc1cc(-c2oc3cc(O)cc(O)c3c(=O)c2OC2OC(CO)C(O)C(O)C2OC2OC(C)C(O)C(O)C2O)ccc1O (stereo not given) has NF-kB SEAP reporter activity at least equal to 1.
Reply: NO

Task item: I'd appreciate it if you could say whether "CNCc1ccc(-c2cc(-c3nc(-c4ccc(S(=O)(=O)C(C)C)cc4)cnc3N)on2)cc1" has NF-kB SEAP reporter activity at least equal to 1.
Reply: NO

Task item: I'd appreciate it if you could say whether "O=C(O)c1ccc(CSc2nc(-c3ccccc3)cc(N3CCN(c4ccccc4Cl)CC3)n2)cc1" has NF-kB SEAP reporter activity at least equal to 1.
Reply: NO

Task item: I'd appreciate it if you could say whether "O=c1cc(-c2ccc(O)cc2)oc2cccc(O)c12" has NF-kB SEAP reporter activity at least equal to 1.
Reply: YES

----------
system: RAW-Dual; experiment: NF-kB SEAP reporter activity, fold change vs agonist alone; higher = enhanced NF-kB activity; settings: library stock concentration (final ~1000-fold dilution): 10 mM; cytotoxicity flag (confluency mask): not cytotoxic; agonist: Imiquimod (TLR7) […]
Whole data set: some 2,900 compounds, median “NF-kB SEAP reporter activity, fold change vs agonist alone” near 0.99, cut for the highest 2% near 2.6. What follows is part of a selection rich in the highest values, with near analogues and random picks from the rest.
result type: NF-kB SEAP reporter activity
// response body must contain only the number

{"columns": ["compound", "result type", "quantitative result"],
 "data": [
  ["C=C(CC(=O)OCCCCCCCC)C(=O)O", "NF-kB SEAP reporter activity", 0.711],
  ["CC(C)(Cc1ccc2ccccc2c1)NCC(O)COc1cccc(Cl)c1C#N (centres undefined)", "NF-kB SEAP reporter activity", 0.896],
  ["CC(C)(C)c1cc(C(=O)/C(C#N)=N/Nc2cccc(Cl)c2)no1", "NF-kB SEAP reporter activity", 1.11]
]}

Lab note: next compound to report on.
Task item: Give recorded NF-kB SEAP reporter activity. Cc1noc(C)c1-c1cnc2c(-c3ccc(C(=O)O)cc3)cn(C(C)c3ccccn3)c2c1 (centres undefined)
Reply: 1.59
